# Protocol Summary: PDE10a-perfused brain permeability study (plasma and brain concentrations)
# Settings: male, Sprague-Dawley, rat, brain
Counter-ions that a name gives are not always drawn.
Readout Label: concentration at 2 h (ng/g)
Express the result in ng/g but write the number alone.

Example entries begin here.
CC(=O)NS(=O)(=O)c1ccc(-c2cnc(N3CCOCC3)c3nc(/C=C/c4ccc5ccccc5n4)cn23)cc1 [Cpd 69, trifluoroacetic acid salt] = 36.1
c1cncc(-c2cnc(N3CCOCC3)c3nc(COc4ccc5ccccc5n4)cn23)c1 = 21.9
c1ccc2nc(OCc3cn4c(-c5ccc(N6CCNCC6)nc5)cnc(-c5ccc6nc[nH]c6c5)c4n3)ccc2c1 [Cpd 119, trifluoroacetic acid salt] = 108

The molecule listed as `c1ccc2nc(OCc3cn4c(-c5ccc(-c6nnn[nH]6)nc5)cnc(N5CCOCC5)c4n3)ccc2c1` has a reported concentration at 2 h of 0

====

# Protocol Summary: PDE10a-perfused brain permeability study (plasma and brain concentrations)
# Settings: male, Sprague-Dawley, rat, plasma
Structures can show the parent of a compound that is named as a salt.
Readout Label: concentration at 2 h (ng/mL)
Field format: number, assumed ng/mL, no unit text.

O=C(O)CN1CCC(c2cnc(N3CCOCC3)c3nc(COc4ccc5ccccc5n4)cn23)CC1 [Cpd 110, trifluoroacetic acid salt] = 4.63

concentration at 2 h recorded for this compound, c1ccc2nc(OCc3cn4c(-c5ccc(N6CCNCC6)nc5)cnc(N5CCOCC5)c4n3)ccc2c1 [Cpd 126] , is 22.4

# concentration at 2 h (compound: O=C(Nc1cn2c(-c3ccc(N4CCNCC4)nc3)cnc(N3CCOCC3)c2n1)c1ccc2ccccc2n1 [Cpd 125] ) is 45.9

Reported concentration at 2 h for O=c1[nH]nnn1-c1ccc(-c2cnc(N3CCOCC3)c3nc(/C=C/c4ccc5ccccc5n4)cn23)cc1 [Cpd 55] was 118

====

# System Name: Rat recombinant PDE10a (rPDE10a) (Rattus norvegicus (Rat))
# Sequence (Q9QYJ6 whole entry): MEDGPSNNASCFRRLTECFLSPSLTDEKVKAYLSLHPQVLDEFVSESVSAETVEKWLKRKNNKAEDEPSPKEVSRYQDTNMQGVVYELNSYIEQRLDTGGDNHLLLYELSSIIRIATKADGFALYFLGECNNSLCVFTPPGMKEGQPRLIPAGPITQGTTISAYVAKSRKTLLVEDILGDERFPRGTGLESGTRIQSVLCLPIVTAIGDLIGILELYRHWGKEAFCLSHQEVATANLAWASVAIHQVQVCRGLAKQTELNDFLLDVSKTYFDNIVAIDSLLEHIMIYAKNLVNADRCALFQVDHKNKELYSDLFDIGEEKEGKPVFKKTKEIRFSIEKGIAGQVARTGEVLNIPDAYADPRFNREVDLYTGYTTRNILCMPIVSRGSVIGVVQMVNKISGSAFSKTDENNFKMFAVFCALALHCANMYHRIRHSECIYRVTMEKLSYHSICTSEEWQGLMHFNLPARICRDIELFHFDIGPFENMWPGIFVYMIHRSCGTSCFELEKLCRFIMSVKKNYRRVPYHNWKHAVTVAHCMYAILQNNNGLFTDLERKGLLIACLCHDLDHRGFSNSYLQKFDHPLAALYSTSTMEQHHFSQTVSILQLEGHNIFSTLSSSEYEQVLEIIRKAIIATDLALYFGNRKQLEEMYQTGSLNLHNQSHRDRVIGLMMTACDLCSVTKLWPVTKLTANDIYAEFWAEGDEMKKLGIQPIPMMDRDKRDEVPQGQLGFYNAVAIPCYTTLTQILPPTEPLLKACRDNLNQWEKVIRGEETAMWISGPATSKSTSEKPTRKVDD
# Protocol Summary: In vitro assay PDE10a (rat recombinant PDE10a, SPA)
# Settings: 60 nM cAMP, 60 min at rt, read-out: rPDE10a2 IC50
Counter-ions that a name gives are not always drawn.
Catalogue of pIC50 values
Would you please state pIC50, meaning minus log10 of the concentration in mol/L, as a bare number?

Answered cases to consult:
c1ccc2nc(OCc3cn4c(-c5ccc(Sc6nnc[nH]6)nc5)cnc(N5CCOCC5)c4n3)ccc2c1 = 7.42
COC1CCN(c2ncc(-c3ccc(N4CCNCC4)nc3)n3cc(COc4ccc5ccccc5n4)nc23)CC1 [Cpd 112, trifluoroacetic acid salt] = 7.02
O=C(O)c1ccc(-c2cnc(N3CCOCC3)c3nc(/C=C/c4ccc5ccccc5n4)cn23)nc1 = 7.85

// pIC50 lookup, compound = c1ccc2nc(CCc3cn4c(-c5ccc(N6CCNCC6)nc5)cnc(N5CCOCC5)c4n3)ccc2c1 [Cpd 102, trifluoroacetic acid salt] , result: 7.77

Data point: `c1ccc2nc(CCc3cn4c(-c5ccc(Sc6cnn[nH]6)cc5)cnc(N5CCOCC5)c4n3)ccc2c1` ; pIC50 = 7.64

The compound identified as `Oc1nc2ncc(-c3cnc(N4CCOCC4)c4nc(/C=C/c5ccc6ccccc6n5)cn34)cc2[nH]1` registered its pIC50 at 8.52

Lab note: `CS(=O)(=O)NC(=O)c1ccc(-c2cnc(N3CCOCC3)c3nc(CSc4ccc5ccccc5n4)cn23)cc1` gave pIC50 of 8.40

pIC50 for `Cn1nc(-c2ccc(-c3cnc(N4CCOCC4)c4nc(CCc5ccc6ccccc6n5)cn34)cc2)[nH]c1=O` is 7.64

// recorded pIC50 for Clc1c(N2CC(c3ccc4ccccc4n3)C2)nc2c(N3CCOCC3)ncc(-c3ccc(N4CCNCC4)nc3)n12 [Cpd 132, trifluoroacetic acid salt] : 6.06
